Target: T1, Human CD3eg linker (human)
T1 construct: Single chain: epsilon and gamma subunits of human CD3 joined by a 29-mer linker, Flag-tag at the C-terminus; also called recombinant human CD3
T1 chain: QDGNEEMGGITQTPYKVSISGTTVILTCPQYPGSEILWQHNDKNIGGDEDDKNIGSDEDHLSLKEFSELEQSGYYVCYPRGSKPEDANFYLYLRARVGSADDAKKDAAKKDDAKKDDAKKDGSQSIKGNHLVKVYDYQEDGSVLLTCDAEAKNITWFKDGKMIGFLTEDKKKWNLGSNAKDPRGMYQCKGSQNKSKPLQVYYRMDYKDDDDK
Test: Biacore SPR, vs template H183/L072
Listed here: items and their measured fold change of affinity.
Write the answer as a number in fold, unit excluded.

// known answers, use as guide
## Task Which fold change of affinity value is on record for H183/L072 VH A32G (antibody, name in Kabat numbering, V domains shown) VH: QVQLVESGGGLVQPGRSLRLSCAASGFTFSNGWMHWVRQAPGKGLEWVAQIKDKGNAYAAYYAPSVKGRFTISRDDSKNSIYLQMNSLKTEDTAVYYCHYVHYASASTVLPAFGVDAWGQGTTVTVSS VL: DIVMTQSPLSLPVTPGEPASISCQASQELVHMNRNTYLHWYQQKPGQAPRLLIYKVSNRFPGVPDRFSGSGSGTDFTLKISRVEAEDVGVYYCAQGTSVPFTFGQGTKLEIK ?
## Result 0.3

## Task Entry H183/L072 VH F29M (antibody, name in Kabat numbering, V domains shown) VH: QVQLVESGGGLVQPGRSLRLSCAASGFTMSNAWMHWVRQAPGKGLEWVAQIKDKGNAYAAYYAPSVKGRFTISRDDSKNSIYLQMNSLKTEDTAVYYCHYVHYASASTVLPAFGVDAWGQGTTVTVSS VL: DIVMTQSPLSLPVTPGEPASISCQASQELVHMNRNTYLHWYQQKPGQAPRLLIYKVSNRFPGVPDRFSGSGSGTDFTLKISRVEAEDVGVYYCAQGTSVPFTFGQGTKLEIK has what fold change of affinity?
## Result 0.4

## Task // query fold change of affinity value for entry H183/L072 VH G65L (antibody, name in Kabat numbering, V domains shown) VH: QVQLVESGGGLVQPGRSLRLSCAASGFTFSNAWMHWVRQAPGKGLEWVAQIKDKGNAYAAYYAPSVKLRFTISRDDSKNSIYLQMNSLKTEDTAVYYCHYVHYASASTVLPAFGVDAWGQGTTVTVSS VL: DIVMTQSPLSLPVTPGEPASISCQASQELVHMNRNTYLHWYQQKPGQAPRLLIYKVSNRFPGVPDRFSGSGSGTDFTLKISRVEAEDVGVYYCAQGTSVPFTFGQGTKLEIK
## Result 0.9

## Task Which measured fold change of affinity value corresponds to H183/L072 VH F27Y (antibody, name in Kabat numbering, V domains shown) VH: QVQLVESGGGLVQPGRSLRLSCAASGYTFSNAWMHWVRQAPGKGLEWVAQIKDKGNAYAAYYAPSVKGRFTISRDDSKNSIYLQMNSLKTEDTAVYYCHYVHYASASTVLPAFGVDAWGQGTTVTVSS VL: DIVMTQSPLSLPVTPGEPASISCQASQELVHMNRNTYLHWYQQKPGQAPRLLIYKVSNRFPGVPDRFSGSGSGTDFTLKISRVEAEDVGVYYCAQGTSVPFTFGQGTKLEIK ?
## Result 0

New cases:
## Task Consider the binder shown here: H183/L072 VH V95L (antibody, name in Kabat numbering, V domains shown) VH: QVQLVESGGGLVQPGRSLRLSCAASGFTFSNAWMHWVRQAPGKGLEWVAQIKDKGNAYAAYYAPSVKGRFTISRDDSKNSIYLQMNSLKTEDTAVYYCHYLHYASASTVLPAFGVDAWGQGTTVTVSS VL: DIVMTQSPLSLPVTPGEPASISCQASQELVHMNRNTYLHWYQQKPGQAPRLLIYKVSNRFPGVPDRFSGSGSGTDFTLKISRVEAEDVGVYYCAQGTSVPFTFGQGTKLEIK What is its recorded fold change of affinity?
## Result 0
